- subjectOfTest: Chromo domain-containing protein 1 (Saccharomyces cerevisiae (strain ATCC 204508 / S288c) (Baker's yeast))
- assayName: ScCHD-1 Enzyme Inhibition Assay
- Type: functional
- Design: scale not given: in the data most compounds retested in dose-response had high values
- conditionsUsed: 30 µM
Reported Percent Effect values for a set of molecules
Please reply with the bare figure in % and do not write the unit itself.

CCOCC(=O)N1CCC(Oc2ccc(C(F)(F)F)cn2)CC1 :: -4.83

stdin: Which Percent Effect value is on record for O=S(=O)(NCC1CCOc2ccccc2C1)N1CCOCC1 (centres undefined) ?
stdout: 1.35

stdin: Which Percent Effect value is on record for O=C(NCC1CC1)c1nc(COc2ccc3c(c2)OCO3)no1 ?
stdout: -6.83

stdin: Which Percent Effect value is on record for CC(=O)c1ccc(C(=O)NCCCOC(C)c2ccccc2)s1 (centres undefined) ?
stdout: -1.78

stdin: Which Percent Effect value is on record for Cc1ccoc1C(=O)N1C[C@H]2CCC[C@@]2(COCc2ccncc2)C1 ?
stdout: -4.37

stdin: Which Percent Effect value is on record for Cc1cncc(C2CCCN(C(=O)c3scnc3C)C2)n1 (centres undefined) ?
stdout: -22.3

stdin: Which Percent Effect value is on record for CC(C)Oc1ccccc1CNC(=O)N1CCC(n2cncn2)CC1 ?
stdout: -29.4

stdin: Which Percent Effect value is on record for Cc1nonc1CC(=O)N1C[C@@H]2CC[C@H](C1)N(Cc1ccccc1)C2=O ?
stdout: -2.68

stdin: Which Percent Effect value is on record for Cn1cc(CN2CC3(CCN(C(=O)c4ccoc4)C3)C2)cn1 ?
stdout: -6.08
